Reported folding enthalpy values follow for various sequences
# assay_text: folding enthalpy; higher = less favourable; fluorescence melt of hairpins on a sequencing array, two-state fit
# reported_conditions: sodium 0.088 M
Report as: number unit

Solved cases (6 shown):
query_sequence: GATCACAAAAGTGATC ((((((....))))))
assay_metric: folding enthalpy
result: -36.8 kcal/mol

query_sequence: GACATTGGAAACAACGTC (((.(((....))).)))
assay_metric: folding enthalpy
result: -23.2 kcal/mol

query_sequence: GGGGGTGGAAACGCCCTC (.(((.(....).))).)
assay_metric: folding enthalpy
result: -28 kcal/mol

query_sequence: GATCAAGAACTTGATC ((((((....))))))
assay_metric: folding enthalpy
result: -38.4 kcal/mol

query_sequence: GATCGGTTCCCCGATC ((((((....))))))
assay_metric: folding enthalpy
result: -40 kcal/mol

query_sequence: GCGTCGCACGC ((((...))))
assay_metric: folding enthalpy
result: -17.5 kcal/mol

# return recorded folding enthalpy for input GATCGAGGATCGATC ((((((...))))))
-35.4 kcal/mol

Provide measured folding enthalpy value, entry: GATCCTGTACAGGATC ((((((....))))))
-40.7 kcal/mol

Please look at this sequence and report its folding enthalpy: GCCGGGCGAAAGCAAGGC (((..((....))..)))
-34 kcal/mol

Read the entry GCATAGCGAAAGCCAGGC ((.(.((....)).).)) and write its reported folding enthalpy.
-12.3 kcal/mol

Provide only the value of recorded folding enthalpy for GCGACCCATCGC ((((....))))
-19.5 kcal/mol

Identify measured folding enthalpy associated with GATGCCGGAAACGGTATC (((.(((....))).)))
-42.9 kcal/mol

Specify reported folding enthalpy for the sequence shown: GCTGTGGGAAACCATGGC ((..(((....)))..))
-33.5 kcal/mol

----------
# assay_text: folding enthalpy; higher = less favourable; fluorescence melt of hairpins on a sequencing array, two-state fit
# reported_conditions: sodium 0.088 M
Is folding enthalpy at least -30 kcal/mol? Then MET. If not, NOT MET.

The following sequences have reported results that may help.
query_sequence: GAAGGTGAAAACCTTC ((((((....))))))
group_label: MET

query_sequence: GGAGGAGGAAACTCCTCC (((((((....)))))))
group_label: NOT MET

query_sequence: CGTTCGGAAACGACGACG ((((((....)))..)))
group_label: MET

// inclusive: folding enthalpy at least -30 kcal/mol? input: GGCTCTCCGAAAGGAGCC (((..(((....))))))
MET

Quick check: does GGGGGTCGAAAGACACCC (((.(((....))).))) have folding enthalpy greater than or equal to -30 kcal/mol?
NOT MET

Item GAGAGCCGAAAGGCCCTC (((.(((....))).))) with folding enthalpy of -30 kcal/mol or above?
MET

For this sequence, is measured folding enthalpy -30 kcal/mol or higher? GCTTTGCGAAAGCCAGGC ((.(.((....)).).))
MET

----------
# assay_text: folding enthalpy; higher = less favourable; fluorescence melt of hairpins on a sequencing array, two-state fit
# reported_conditions: sodium 0.088 M
Property: folding enthalpy; scope: individual sequences
// units = kcal/mol; emit number, no label

Worked examples follow.
query_sequence: GGTTGTGGAAACGTAACC ((((..(....)..))))
folding enthalpy, kcal/mol: -24.3
--
query_sequence: GGACCCGAAAGGGGGTCC ((((((....)))..)))
folding enthalpy, kcal/mol: -27.1
--
query_sequence: GCCACGCGAAAGCTCGGC (((..((....))..)))
folding enthalpy, kcal/mol: -22
--
query_sequence: GTTTCTCGAAAGAGGAAC (((.(((....))).)))
folding enthalpy, kcal/mol: -34.7
--
query_sequence: GGGTTCCGAAAGGACCCC (((.(((....))).)))
folding enthalpy, kcal/mol: -39.5

Consider the record given below.
Name the recorded folding enthalpy of the item GCCTTCGCGAAAGCGGGC (((..(((....)))))) in your answer.
-12.2
